- Measured target: MT3 (ML2) (Mesocricetus auratus, UniProt A0ABM2YAB8)
- Construct: CEREP (contract assay)
- Sequence (A0ABM2YAB8 1-231): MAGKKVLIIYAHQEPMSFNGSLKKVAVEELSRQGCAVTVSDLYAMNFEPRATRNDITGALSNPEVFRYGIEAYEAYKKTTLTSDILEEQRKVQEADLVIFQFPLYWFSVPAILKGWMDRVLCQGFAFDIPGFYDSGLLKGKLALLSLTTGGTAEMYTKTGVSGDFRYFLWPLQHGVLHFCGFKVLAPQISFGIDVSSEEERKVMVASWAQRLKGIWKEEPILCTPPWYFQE
- Assay details: CEREP panel
- Type: binding
- Measurement context: 10 µM
Measurement kind: % inhibition MT3 (ML2) (%)

> print(dat)
                                   compound        measurement.kind  reported.result
1  Cc1ccc2c(c1)Cc1c(C(=O)NN3CCCCC3)nn(-c3ccc(Cl)cc3Cl)c1-2 [Gp-1a]  % inhibition MT3 (ML2)               33
2  Cc1c(C(=O)c2cccc3ccccc23)c2cccc3c2n1[C@H](CN1CCOCC1)CO3 [WIN55212-2]  % inhibition MT3 (ML2)               69
3  CN1CCCC[C@H]1Cn1cc(C(=O)c2cc([N+](=O)[O-])ccc2I)c2ccccc21 [(S)-AM1241]  % inhibition MT3 (ML2)               49
4  CCCn1c(C)c(C(=O)c2cccc3ccccc23)c2ccccc21 [JWH015]  % inhibition MT3 (ML2)               49
